- procedureDetails: Antioxidant activity assessed as trolox equivalent of AAPH-induced radical scavenging activity at 5 uM preincubated for 15 mins followed by AAPH addition measured every min for 90 mins by ORAC-FL assay
- Format: functional
Below: a set of entries, each annotated with reported Activity.

[[record]]
molecule = "CCN(CCC/C=C1/OC(=O)c2cc(OC)c(OC)cc21)Cc1ccccc1OC"
recordedvalue = "0.53 µMequiv/µM"

[[record]]
molecule = "COc1cc2c(cc1OC)/C(=C\\CCCN1CCCCC1)OC2=O"
recordedvalue = "0.32 µMequiv/µM"


So, "CCN(CCC/C=C1/OC(=O)c2cc(OC)c(OC)cc21)Cc1ccccc1" ? Its Activity was 0.52 µMequiv/µM

So, "CCN(CCC/C=C1\OC(=O)c2cc(OC)c(OC)cc21)Cc1ccc(N(C)C)cc1" ? Its Activity was 2.75 µMequiv/µM

So, CCN(CCCCC1OC(=O)c2cc(OC)c(OC)cc21)Cc1ccccc1OC (stereo unspecified) ? Its Activity was 0.74 µMequiv/µM

So, "COc1cc2c(cc1OC)/C(=C\CCCCCN(C)Cc1ccccc1)OC2=O" ? Its Activity was 0.43 µMequiv/µM
